Biological target: T1, 4H72-bN
T1 chain: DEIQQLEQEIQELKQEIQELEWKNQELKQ
Experiment: two-hybrid library CCNG1;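 note: natural log of median RNA to DNA barcode read ratio; higher means stronger binding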
Readout kind: interaction score

Sample answers from the record:
[[record]]
binder = "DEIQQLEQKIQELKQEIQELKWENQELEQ [4H331-bN]"
readout_kind = "interaction score"
assay_result = 0.918

[[record]]
binder = "DEIQQLEQKNQELKQEIQELKWKIQELKQ [4H462-bN]"
readout_kind = "interaction score"
assay_result = -0.825

[[record]]
binder = "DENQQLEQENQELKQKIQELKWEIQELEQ [4H1257-bN]"
readout_kind = "interaction score"
assay_result = -1.99


1 = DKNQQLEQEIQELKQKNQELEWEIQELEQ [4H3185-bN]
2 = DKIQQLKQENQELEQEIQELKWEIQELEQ [4H2697-bN]
3 = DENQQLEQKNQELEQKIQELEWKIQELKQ [4H1446-bN]
4 = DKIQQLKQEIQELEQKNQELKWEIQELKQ [4H2618-bN]
Task: Sequence the entries by interaction score, beginning with the highest number. Reply with the item labels sorted in the order that was asked for.
Result: 3, 4, 2, 1
(3: 0.548, 4: -0.128, 2: -1.14, 1: -2.24)
